Entries and their phosphorylation enrichment values follow.
system: c-Abl (mouse); experiment: phosphorylation enrichment, bacterial display (enrichment ratio); higher = better substrate or ligand; peptides without Tyr show the background;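 further: 11-residue human phosphosite peptides and single-mutation variants displayed on the E. coli surface, counted by deep sequencing, each peptide's frequency after selection divided by its frequency in the unselected input library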;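 further: frequency after pTyr selection over input frequency; kinase dosed for 20-30% of maximal phosphorylation in three min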
Provide a numeric answer; units are not to be included.

Field: example entries. Status: answers known.
>>> numeric_result("MARDISRASYY [ALK_Y1278_Y1278S]")
0.59
>>> numeric_result("DYYDLYGGEKF [PTPN11_Y66]")
0.74
>>> numeric_result("EAAFVYVISSA [WNT4_Y113_A114V]")
0.847
>>> numeric_result("GSIQQYIYKQE [PRG4_Y1271]")
0.486
>>> numeric_result("FVPSNYVAEDR [FRK_Y104_I100V_YF]")
0.625
>>> numeric_result("QEIATCRRLLE [KRT14_Y415_Y415C]")
0.641
>>> numeric_result("VSYDEYRYRSF [CFTR_Y515_V520F]")
0.916
>>> numeric_result("LIDSSYLTPTA [GREB1L_Y1063_R1066P]")
0.871
>>> numeric_result("YIILIYAMKKK [SLCO1B1_Y645]")
0.426
>>> numeric_result("GTATAYLCGVK [ALPL_Y117]")
0.667

Would you kindly share the measured phosphorylation enrichment for ALETLYKKAVK [CC2D2A_Y381_E376A] ?
0.463

Any idea what its phosphorylation enrichment is? The sequence is RQAQAYRGQRV [TSHR_Y706]
1.25

Given the entry KDHPDYEYQPR [SOX9_Y172_K173E] , report its measured phosphorylation enrichment.
0.665

Which value of phosphorylation enrichment has been reported for KPGLVYNKVNP [SPRED3_Y72] in the records?
0.675

I would be grateful if you could share the reported phosphorylation enrichment for AEPPDYSPVTQ [ADGRG2_Y285_H290Q] .
0.99

Entry SVEELYAIPPD [PEAK1_Y797] : reported phosphorylation enrichment = ?
9.56

Can you share its phosphorylation enrichment? I mean this sequence: HITQVYGFFDE [PPP2CA_Y127_Q122H_YF]
1.69

Param item = QGFDTYFGFLL [ARSB_Y165_R160Q_YF] ; retrieve measured phosphorylation enrichment.
1.33

Which phosphorylation enrichment reading was recorded for the sequence LHSEAYLKFNE [PBRM1_Y1610_I1614N_YF] ?
0.922

Given the sequence EDNPEYMRLRN [ADD2_Y31_D28N] , what is its reported phosphorylation enrichment?
0.713

Reported phosphorylation enrichment, sequence DENRFYTRAAS [RPS19_Y54_W52R] : ____
0.684

Which phosphorylation enrichment is listed for EERKTYVNTTL [TEK_Y1102] ?
0.779

Which phosphorylation enrichment reading was recorded for the sequence VDASYCGGRGV [ANTXR2_Y381_Y381C] ?
0.519

GET /values?readout=phosphorylation enrichment&item= EEVKAYLDFGE [CHAC2_Y78_R82G]
0.944

If you can, please state the reported phosphorylation enrichment value of FGSSSYGGAGG [RPA2_Y14_YF] .
0.677

# phosphorylation enrichment lookup, item SSSAIYDNPNL [DCP1B_Y191]
22.5

Can you look up the measured phosphorylation enrichment of FADTAYNFRHG [PAH_Y166_I164T_YF] for me?
0.544

---

Listing: phosphorylation enrichment of selected sequences
test system: c-Src; experiment: phosphorylation enrichment, bacterial display (enrichment ratio); higher = better substrate or ligand; peptides without Tyr show the background
Write no unit; give the number alone.

>>> numeric_result("ARVANYHRDGP [CAT_Y386_Q387H]")
0.395
>>> numeric_result("HDEPTYARSSK [PEAK1_Y616]")
1.29

Param item = LTSKPYAFTAR [NDUFS1_Y236] ; retrieve measured phosphorylation enrichment.
0.534

---

target: Fyn (UniProt P06241); assay: phosphorylation enrichment, bacterial display (enrichment ratio); higher = better substrate or ligand; peptides without Tyr show the background
Sequence (P06241 whole entry, looked up): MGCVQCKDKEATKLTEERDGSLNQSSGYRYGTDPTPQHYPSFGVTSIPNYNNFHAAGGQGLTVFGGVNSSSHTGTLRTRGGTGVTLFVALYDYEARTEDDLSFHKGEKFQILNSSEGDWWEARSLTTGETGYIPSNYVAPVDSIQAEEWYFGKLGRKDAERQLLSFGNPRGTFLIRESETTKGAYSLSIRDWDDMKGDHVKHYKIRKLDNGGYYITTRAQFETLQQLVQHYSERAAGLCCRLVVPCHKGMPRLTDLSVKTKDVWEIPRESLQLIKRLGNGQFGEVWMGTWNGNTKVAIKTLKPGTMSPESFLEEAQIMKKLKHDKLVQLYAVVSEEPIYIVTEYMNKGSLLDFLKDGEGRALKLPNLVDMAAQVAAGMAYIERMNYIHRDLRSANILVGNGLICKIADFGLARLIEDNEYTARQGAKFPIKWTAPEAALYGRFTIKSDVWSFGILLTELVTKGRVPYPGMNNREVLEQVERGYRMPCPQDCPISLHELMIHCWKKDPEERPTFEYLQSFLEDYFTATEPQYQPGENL
Parameter: phosphorylation enrichment. Scope: all listed entries.
Answer with a number only.

A selection of reference data follows.
>>> numeric_result("IQRSLYDRPAS [PDGFRA_Y762]")
0.613
>>> numeric_result("SDGHEYIFVDP [PDGFRB_Y579_YF]")
0.509
>>> numeric_result("DFRTTYVNANE [KCNH2_Y475_N470D]")
0.491
>>> numeric_result("CTTIFYNFMCN [TP53_Y234_H233Y_YF]")
0.592
>>> numeric_result("KPLMPYMRFSR [SMARCE1_Y73_YF]")
0.591
>>> numeric_result("IPGRFYETGSI [PAX2_Y73_L69P_YF]")
0.492

Alright, here's another sequence for you.
Quick one: phosphorylation enrichment for LHRAHYDLRHT [AHSG_Y314] ?
0.617

---

Entries and their phosphorylation enrichment values follow.
test system: c-Src; assay: phosphorylation enrichment, bacterial display (enrichment ratio); higher = better substrate or ligand; peptides without Tyr show the background
When you answer, write just the number.

A selection of reference data follows.
>>> numeric_result("FRKNIYNVKST [SYNE2_Y575_YF]")
0.355
>>> numeric_result("LRGEDCGFSVD [PRKCI_Y430_Y430C]")
1.48
>>> numeric_result("TDRNLYSKNLV [CFAP58_Y501_S496T]")
0.627
>>> numeric_result("ARKWGYTVKGI [OAT_Y158]")
0.327
>>> numeric_result("DTKDDYSALSV [IL17RB_Y457_N458S]")
0.473
>>> numeric_result("DEEEEYEYMNR [ERBB3_Y1197_D1194E]")
0.408
>>> numeric_result("SLQSEYVHYGG [CDC14A_Y591]")
0.848
>>> numeric_result("GISDEYHVIWH [GCDH_Y398_R402W]")
1.09

Which phosphorylation enrichment value is on record for VFFFSYLLKNH [PTEN_Y180_YF] ?
0.426

What value of phosphorylation enrichment has been reported for the following sequence? LLVVLNKYRCY [PSEN1_Y154_Y154N]
0.577

// returns reported phosphorylation enrichment for input IRKDLYSNNVL [ACTC1_Y296_A297S]
0.322

---

system: c-Src; assay: phosphorylation enrichment, bacterial display (enrichment ratio); higher = better substrate or ligand; peptides without Tyr show the background
measured attribute: phosphorylation enrichment
Respond using a number only.

Some sequences with known phosphorylation enrichment results, for comparison:
>>> numeric_result("GIFSGYDDAWD [POLR1C_Y36_N32I_YF]")
0.514
>>> numeric_result("TDTQLYGRFGS [ITGA2B_Y384_G380D]")
7.4
>>> numeric_result("DLLNSYIENEG [HSPA4L_Y600]")
0.343

Return reported phosphorylation enrichment; argument: LLINKYGLSAH [SCP2_Y151]
0.428

Dear colleague, I am looking for the recorded phosphorylation enrichment of the following sequence: LKGQVYILGRE [ASS1_Y359]
0.438

For the sequence WVYNHYRWFIW [BRCA2_Y2624_I2627F] , what phosphorylation enrichment is on record?
0.433

Entry YGAHKYHPLPV [OAT_Y55_N54K] has what phosphorylation enrichment?
0.562

Find the recorded phosphorylation enrichment belonging to RKKEEYKMAPY [F8_Y1990_L1994P] and report it.
0.816

Tell me the measured phosphorylation enrichment of DSFATYFRRVL [H2BW1_Y84] , please.
0.532

I'd like to know its phosphorylation enrichment. The sequence in question is QITQVYGFFHE [PPP2CA_Y127_D131H_YF]
9.89

Quick one: phosphorylation enrichment for MSSHHYDYKKY [ZNF445_Y428] ?
0.383

Item VMLENYSNLLS [ZFP69_Y109_V113L] has what recorded phosphorylation enrichment?
0.428

Would you mind telling me what phosphorylation enrichment value was observed for LRRFIYRPPDQ [OTOF_Y1231_R1236Q] ?
0.318

Quick check: phosphorylation enrichment of DFLEKYFKFGS [NNMT_Y24_YF] ?
0.627

Using the record for EEGNPYFSSAR [MCCC2_Y520_YF] , report its phosphorylation enrichment.
1.15

---

target: Jak2 (UniProt O60674); test: phosphorylation enrichment, bacterial display (enrichment ratio); higher = better substrate or ligand; peptides without Tyr show the background
Sequence (O60674 whole entry, looked up): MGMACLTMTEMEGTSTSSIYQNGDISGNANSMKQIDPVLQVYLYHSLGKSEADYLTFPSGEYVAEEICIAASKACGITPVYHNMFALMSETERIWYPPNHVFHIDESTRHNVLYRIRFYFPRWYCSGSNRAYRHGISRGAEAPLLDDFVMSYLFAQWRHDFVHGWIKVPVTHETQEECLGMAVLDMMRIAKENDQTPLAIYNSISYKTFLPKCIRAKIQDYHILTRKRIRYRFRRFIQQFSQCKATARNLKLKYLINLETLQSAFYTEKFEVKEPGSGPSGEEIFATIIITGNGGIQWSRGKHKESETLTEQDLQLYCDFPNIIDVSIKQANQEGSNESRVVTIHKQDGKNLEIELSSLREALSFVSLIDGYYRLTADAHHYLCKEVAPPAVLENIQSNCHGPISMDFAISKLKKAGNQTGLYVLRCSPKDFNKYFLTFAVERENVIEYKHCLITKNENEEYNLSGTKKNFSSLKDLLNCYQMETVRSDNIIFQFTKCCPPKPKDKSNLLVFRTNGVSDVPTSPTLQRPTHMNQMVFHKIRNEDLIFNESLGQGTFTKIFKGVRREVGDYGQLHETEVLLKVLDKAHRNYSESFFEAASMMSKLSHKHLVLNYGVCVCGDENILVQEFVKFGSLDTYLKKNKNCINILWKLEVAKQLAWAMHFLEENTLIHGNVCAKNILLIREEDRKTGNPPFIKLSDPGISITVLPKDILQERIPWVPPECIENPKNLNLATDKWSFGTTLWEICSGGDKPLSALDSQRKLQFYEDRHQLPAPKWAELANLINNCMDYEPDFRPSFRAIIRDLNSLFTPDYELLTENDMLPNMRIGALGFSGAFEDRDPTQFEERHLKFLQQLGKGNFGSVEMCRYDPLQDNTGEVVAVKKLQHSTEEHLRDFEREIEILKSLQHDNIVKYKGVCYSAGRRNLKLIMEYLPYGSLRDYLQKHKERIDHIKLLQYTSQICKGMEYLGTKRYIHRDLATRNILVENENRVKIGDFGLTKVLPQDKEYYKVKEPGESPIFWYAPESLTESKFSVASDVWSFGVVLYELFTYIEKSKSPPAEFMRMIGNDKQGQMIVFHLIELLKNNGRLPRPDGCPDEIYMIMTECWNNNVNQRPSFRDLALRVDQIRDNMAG
Tick fulfilled if phosphorylation enrichment is 0.8 or greater. Tick not fulfilled if phosphorylation enrichment is less than 0.8.

>>> answer_label("ASTDFYKRGDF [PDHA1_Y243_YF]")
"not fulfilled"

Check this sequence for phosphorylation enrichment at or above 0.8: PEIIAYQPYGK [PRKCG_Y529]
fulfilled

Is phosphorylation enrichment at least 0.8? Consider ALIKAYVKAVA [SMN1_Y43_D44V]
fulfilled

Does the reported phosphorylation enrichment for SHGQDYLAGNK [GSTA2_Y147_V149A] fall at or above the 0.8 mark?
not fulfilled

---

biological target: EPHB2 (UniProt P29323); test: phosphorylation enrichment, bacterial display (enrichment ratio); higher = better substrate or ligand; peptides without Tyr show the background
Sequence (P29323 whole entry, looked up): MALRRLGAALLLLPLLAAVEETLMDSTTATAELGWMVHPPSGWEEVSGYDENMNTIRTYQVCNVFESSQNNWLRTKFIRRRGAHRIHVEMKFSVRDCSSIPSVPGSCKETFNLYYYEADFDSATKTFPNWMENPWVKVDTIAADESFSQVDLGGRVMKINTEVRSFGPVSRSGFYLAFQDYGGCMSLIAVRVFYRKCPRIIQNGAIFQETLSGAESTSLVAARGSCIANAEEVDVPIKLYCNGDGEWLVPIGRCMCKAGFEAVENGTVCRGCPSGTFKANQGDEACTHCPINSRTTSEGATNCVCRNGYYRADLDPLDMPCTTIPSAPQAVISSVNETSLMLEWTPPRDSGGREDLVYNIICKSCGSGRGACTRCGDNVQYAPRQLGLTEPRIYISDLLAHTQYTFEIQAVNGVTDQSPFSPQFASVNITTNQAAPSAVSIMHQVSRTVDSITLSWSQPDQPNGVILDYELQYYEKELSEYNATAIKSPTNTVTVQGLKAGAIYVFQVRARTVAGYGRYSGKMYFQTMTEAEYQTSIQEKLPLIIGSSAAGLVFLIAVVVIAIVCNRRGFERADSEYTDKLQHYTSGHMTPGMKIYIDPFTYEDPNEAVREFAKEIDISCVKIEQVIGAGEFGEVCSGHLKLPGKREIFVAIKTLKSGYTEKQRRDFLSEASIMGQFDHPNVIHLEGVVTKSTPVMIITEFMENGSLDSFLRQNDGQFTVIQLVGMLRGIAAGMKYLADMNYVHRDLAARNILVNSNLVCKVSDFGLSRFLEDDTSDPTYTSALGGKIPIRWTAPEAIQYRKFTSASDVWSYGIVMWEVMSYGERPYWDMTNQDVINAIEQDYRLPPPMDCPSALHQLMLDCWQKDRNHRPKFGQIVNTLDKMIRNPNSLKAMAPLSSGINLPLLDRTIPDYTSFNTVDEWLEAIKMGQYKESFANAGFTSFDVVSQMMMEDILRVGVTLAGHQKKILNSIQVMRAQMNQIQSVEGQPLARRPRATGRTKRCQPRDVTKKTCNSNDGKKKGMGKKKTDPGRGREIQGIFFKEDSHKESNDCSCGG
measured attribute: phosphorylation enrichment

Known results for sequences:
>>> result("SLGSPYEQPPR [PDLIM4_Y137_G138E]")
0.493
>>> result("TIWDSYTTNKV [GNB1_Y85_I80T]")
0.452
>>> result("SVKVYYKKCWF [EPHA7_Y202_S207F]")
0.531
>>> result("EAVKNYTDKRG [PBRM1_Y672]")
0.498
>>> result("IGEGTYRQVYK [CDK13_Y716_G717R]")
0.465

Recorded phosphorylation enrichment for VTPVMYTYDEY [COL10A1_Y623_G618V] , please?
0.798

For the sequence shown here, VRFMAYTDEIF [F8_Y450_T454I] , give the reported phosphorylation enrichment.
0.595

Which phosphorylation enrichment value is on record for PINLYYLMDLS [ITGB2_Y131_D128N] ?
6.74
